TGT: T1, recombinant human IL-6 (human, UniProt P05231 30-212, labeled with radioactive iodine)
T1 construct: Labeled probe in solution, added to wells that carry the synthetic peptides; also called IL-6 ligand; Interleukin-6
PROTOCOL_TEXT: radioiodinated IL-6 on peptide array
PROPERTY_NAME: Counts/minute bound (counts/minute)
# output: bare number, no unit

Recorded results for 3 binders are shown here.
LTCNILTFGQLEQNVYGITIISGL [Peptide E11] | 1820
AAGSHPSRWAGMGRRL [Peptide A6] | 1750
PRSTPSLTTKAVLL [Peptide B8] | 1850

Qu. State, in one line, measured Counts/minute bound (counts/minute) of SDKAPCITDWQQEDGTVHRTYLRG [Peptide E47]
Ans. 2080
